# assayed target: chymotrypsin (Bos taurus, UniProt P00766)
# experimental details: Chymotrypsin assay
# Format: biochemical
pIC50: −log10 of the molar value.
endpoint name: pIC50

Query string: Find the measured pIC50 of "CC[C@@H](C)[C@H]1C(=O)N(C)[C@@H](Cc2ccc(OC)c(Br)c2)C(=O)N[C@@H]([C@@H](C)CC)C(=O)O[C@H](C)[C@H](NC(=O)[C@H](NC(=O)[C@@H](COS(=O)(=O)O)OC)C(C)C)C(=O)N[C@@H](CCCCN)C(=O)N[C@H]2CC[C@@H](O)N1C2=O" and report it.
Result string: < 5.00
